- assay name: S. typhi counter-screen signal inhibition – fluorescence, 4 h, counter-screen for PhoP regulon inhibitor project, dose response (AID 2384)
- conditions: S. typhi GFP reporter counter-screen; series mostly up to 150 µM
Out of some 2,300 compounds screened, about 1,100 (48%) were called active. The set was probably picked from earlier hits. The list shows a part of the results. Measured potencies and affinities stand elsewhere.
value type: inhibition

CC1(C)CC(=O)C(C=NCC2CCN(C(=O)Cc3ccccc3)CC2)=C(O)C1    inactive
C=CCNC(=O)NC(=O)COC(=O)/C(C#N)=C/c1ccc(OC)cc1    inactive
Cc1ccn2cc(C(=O)Nc3nnc(C)s3)nc2c1    inactive
CC(C)(C)n1nc2c(c1NC(=O)c1ccccc1)CS(=O)(=O)C2    inactive
CCOC(=O)c1cccc(NC(=O)c2cccs2)c1    inactive
Cc1ccccc1-n1ncc2c([N+](=O)[O-])cc([N+](=O)[O-])cc21    inactive
COc1cccc(CNC(=O)C2CCN(S(=O)(=O)c3ccc(C)cc3)CC2)c1    inactive
CCOc1ccc(-c2c[n+]3c(n2-c2ccccc2)CCCCC3)cc1    inactive
Cc1cc(NS(=O)(=O)c2ccc(Nc3nc(-c4sc(NC(=O)c5ccccc5)nc4C)cs3)cc2)no1    inactive

We next turn to a different molecule, shown below.
Consider `Cc1cc(C)c[n+](CC(=O)c2ccc(NC(=O)c3ccccc3)cc2)c1` . Its measured inhibition is inactive
